SYSTEM_TESTED: SARS-CoV-1 Mpro (Severe acute respiratory syndrome coronavirus (SARS-CoV), UniProt P0C6X7)
Please respond with reported pEC50 for every item in the list.
Give bare numbers, as −log10 of the molar value.

Known results for compounds:
O=C(N[C@@H]1CCN(c2c(C(=O)N3CC4CC(C3)O4)cc(Br)cc2C(F)(F)F)C1)c1cc(=O)[nH]c2c(F)cccc12 :: 8.73
Cc1cc(C(=O)N2CCOCC2)c(N2C[C@H](NC(=O)c3cc(=O)[nH]c4c(F)c(F)ccc34)CC2=O)c(C2CC2)c1 :: 9.14

// for each compound below, give its pEC50
1. N#Cc1cc(C(=O)N2CCOCC2)c(N2CC[C@@H](NC(=O)c3c(F)c(=O)[nH]c4c(F)cccc34)C2)c(C(F)F)c1
2. CN1CCN(C(=O)c2cc(Br)cc(C(F)(F)F)c2N2CC[C@@H](NC(=O)c3cc(=O)[nH]c4c(F)cccc34)C2)CC1

Solution:
1. 8.59
2. 8.90

// for each compound below, give its pEC50
1. O=C(N[C@@H]1CCN(c2c(C(=O)N3CCOCC3)cc(Br)cc2C(F)(F)F)C1)c1cc(=O)[nH]c2c(F)cc(F)cc12
2. O=C(N[C@@H]1CCN(c2c(C(=O)N3CCOCC3)cc(Br)cc2C(F)(F)F)C1)c1c(F)c(=O)[nH]c2c(F)cccc12

Solution:
1. 8.96
2. 8.94

----------
ASSAY_EXPLANATION: in vitro
CONDITION_PARAMETERS: human, microsomes, pH 7.4
Please respond with reported CLint scaled for every item in the list.

Known results for compounds:
Cc1cc(C(=O)N2CCOCC2)c(N2C[C@H](NC(=O)c3cc(=O)[nH]c4c(F)c(F)ccc34)C[C@H]2C)c(C2CC2)c1 [Compound 83] :: 1120 mL/min/kg
Cc1cc(C(=O)N2CCOCC2)c(N2CC[C@@H](NC(=O)c3cc(C)[nH]c(=O)c3F)C2)c(C2CC2)c1 [Compound 60] :: 66.7 mL/min/kg
Cc1cc(C(=O)N2CCOCC2)c(N2CC[C@@H](NC(=O)c3cc(=O)[nH]c4c(F)cccc34)C2)c(C2CC2)c1 [Compound 45] :: 352 mL/min/kg

// for each compound below, give its CLint scaled
1. O=C(N[C@@H]1CCN(c2c(C(=O)N3CCOCC3)cc(Br)cc2C(F)(F)F)C1)c1cc(C(F)F)[nH]c(=O)c1 [Compound 61]
2. COc1cccc2[nH]c(=O)cc(C(=O)N[C@H]3CN(c4c(C(=O)N5CCOCC5)cc(C)cc4C4CC4)C[C@@H]3OC)c12 [Compound 84]
3. COc1cccc2[nH]c(=O)cc(C(=O)N[C@@H]3CCN(c4c(C(=O)N5CCOCC5)cc(C)cc4C4CC4)C3)c12 [Compound 81]
4. COc1cccc2[nH]c(=O)cc(C(=O)N[C@@H]3CCN(c4c(C(=O)N5CCOCC5)cc(Cl)nc4C4CC4)C3)c12 [Compound 82]
5. O=C(N[C@@H]1CCN(c2c(C(=O)N3CCOCC3)cc(Br)cc2C(F)F)C1)c1c(F)c(=O)[nH]c2c(F)cccc12 [Compound 54]
6. O=C(N[C@@H]1CCN(c2c(C(=O)N3CCCCC3)cc(Br)cc2C(F)(F)F)C1)c1cc(=O)[nH]c2c(F)cccc12 [Compound 64]

Solution:
1. 51.7 mL/min/kg
2. 120 mL/min/kg
3. 65 mL/min/kg
4. 56.7 mL/min/kg
5. 140 mL/min/kg
6. 272 mL/min/kg

----------
Form: system (SARS-CoV-2 Mpro (Severe acute respiratory syndrome coronavirus 2 (2019-nCoV) (SARS-CoV-2))), quantity (log10 of EC50), values below.
Heads up, the numbers here are log10 of EC50 in nM units.

Known results for compounds:
COc1cccc2[nH]c(=O)cc(C(=O)N[C@@H]3CCN(c4c(Cl)cc(C)cc4C(=O)N4CCOCC4)C3)c12 [Compound 85] :: 0.15
COc1cccc2[nH]c(=O)cc(C(=O)N[C@@H]3CCN(c4c(C(=O)N5CCOCC5)cc(Cl)nc4C4CC4)C3)c12 [Compound 82] :: 0.00
CN1CCN(C(=O)c2cc(Br)cc(C(F)(F)F)c2N2CC[C@@H](NC(=O)c3cc(=O)[nH]c4c(F)cccc34)C2)CC1 [Compound 63] :: -0.25
N#Cc1cc(C(=O)N2CCOCC2)c(N2C[C@H](NC(=O)c3cc(=O)[nH]c4c(F)cc(F)cc34)CC2=O)c(C(F)(F)F)c1 [Compound 33] :: -0.04
O=C(N[C@@H]1CCN(c2c(C(=O)N3CC4COCC4C3)cc(Br)cc2C(F)(F)F)C1)c1cc(=O)[nH]c2c(F)cccc12 (stereo partly shown) [Compound 66] :: -0.32
N#Cc1cc(C(=O)N2CCOCC2)c(N2CC[C@@H](NC(=O)c3c(F)c(=O)[nH]c4c(F)cccc34)C2)c(C(F)F)c1 [Compound 39] :: -0.38
Cc1cc(C(=O)N2CCOCC2)c(N2C[C@H](NC(=O)c3cc(=O)[nH]c4c(F)c(F)ccc34)CC2=O)c(C2CC2)c1 [Compound 75] :: -0.20
COc1cccc2[nH]c(=O)cc(C(=O)N[C@@H]3CCN(c4c(C(=O)N5CCOCC5)cc(C)cc4C4CC4)C3)c12 [Compound 81] :: -0.31

// for each compound below, give its log10 of EC50
1. COc1cccc2[nH]c(=O)cc(C(=O)N[C@@H]3CCN(c4c(C(=O)N5CCOCC5)cc(F)cc4C4CC4)C3)c12 [Compound 79]
2. COCCN(C)C(=O)c1cc(Br)cc(C(F)(F)F)c1N1CC[C@@H](NC(=O)c2cc(=O)[nH]c3c(F)cccc23)C1 [Compound 72]
3. Cc1[nH]c(=O)c(F)c(C(=O)N[C@@H]2CCN(c3c(C(=O)N4CCOCC4)cc(C#N)cc3C(F)(F)F)C2)c1Cl [Compound 11]
4. O=C(N[C@@H]1CCN(c2c(C(=O)N3CCOCC3)cc(Br)cc2C(F)(F)F)C1)c1c(F)c(=O)[nH]c2c(F)cccc12 [Compound 48]
5. Cc1cc(C(=O)N[C@@H]2CCN(c3c(C(=O)NCC(C)C)cc(C#N)cc3C(F)(F)F)C2)cc(=O)[nH]1 [Compound 29]

Solution:
[-0.38, 0.05, -0.14, -0.37, 1.14]

----------
ASSAY_EXPLANATION: in vitro
CONDITION_PARAMETERS: human, microsomes, pH 7.4
RESULT_TYPE: CLint scaled (mL/min/kg)
Numbers only, in mL/min/kg.

Known results for molecules:
CN1CCN(C(=O)c2cc(C#N)cc(C3CC3)c2N2CC[C@@H](NC(=O)c3cc(=O)[nH]c4c(F)cccc34)C2)CC1 :: 147
O=C(N[C@@H]1CCN(c2c(C(=O)N3CC4CC(C3)O4)cc(Br)cc2C(F)(F)F)C1)c1cc(=O)[nH]c2c(F)cccc12 :: 93.3

// for each molecule below, give its CLint scaled
1. O=C(N[C@@H]1CCN(c2c(C(=O)N3CCOCC3)cc(Br)cc2C(F)(F)F)C1)c1c(F)c(=O)[nH]c2ccccc12
2. O=C(N[C@@H]1CCN(c2c(OC(F)F)cc(Cl)cc2C(=O)N2CCOCC2)C1)c1cc(=O)[nH]c2c(F)cccc12
3. O=C(N[C@@H]1CCN(c2c(C(=O)N3CC(F)(F)C3)cc(Br)cc2C(F)(F)F)C1)c1cc(=O)[nH]c2c(F)cccc12

Solution:
1. 217
2. 100
3. 205

// for each molecule below, give its CLint scaled
1. C[C@@H]1C[C@@H](NC(=O)c2cc(=O)[nH]c3c(F)cccc23)CN1c1c(C(=O)N2CCOCC2)cc(C#N)cc1C(F)(F)F
2. O=C(N[C@@H]1CCN(c2c(C(=O)N3CCOCC3)cc(Cl)cc2C(F)(F)F)C1)c1c(F)c(=O)[nH]c2c(F)cccc12
3. COc1cc(F)cc2[nH]c(=O)cc(C(=O)N[C@@H]3CCN(c4c(C(=O)N5CCOCC5)cc(Br)cc4C(F)(F)F)C3)c12
4. O=C(N[C@@H]1CCN(c2c(C(=O)N3CCOCC3)cc(Br)cc2C(F)(F)F)C1)c1c(F)c(=O)[nH]c2c(F)c(F)ccc12

Solution:
[61.7, 157, 125, 190]

// for each molecule below, give its CLint scaled
1. COCCN1CCN(C(=O)c2cc(Br)cc(C(F)(F)F)c2N2CC[C@@H](NC(=O)c3cc(=O)[nH]c4c(F)cccc34)C2)CC1
2. O=C(N[C@@H]1CCN(c2c(C(=O)N3CCN4CCOCC4C3)cc(Br)cc2C(F)(F)F)C1)c1cc(=O)[nH]c2c(F)cccc12 (stereo partly shown)
3. O=C(N[C@@H]1CCN(c2c(C(=O)N3CCC(F)(F)C3)cc(Br)cc2C(F)(F)F)C1)c1cc(=O)[nH]c2c(F)cccc12
4. O=C(N[C@@H]1CCN(c2c(C(=O)N3CC4(COC4)C3)cc(Br)cc2C(F)(F)F)C1)c1cc(=O)[nH]c2c(F)cccc12
5. O=C(N[C@@H]1CCN(c2c(C(=O)N3CCOCC3)cc(Br)cc2C(F)(F)F)C1)c1cc(=O)[nH]c2c(F)cc(F)cc12
6. O=C(N[C@@H]1CCN(c2c(C(=O)N3CC4COCC4C3)cc(Br)cc2C(F)(F)F)C1)c1cc(=O)[nH]c2c(F)cccc12 (stereo partly shown)

Solution:
[313, 423, 303, 117, 190, 297]

// for each molecule below, give its CLint scaled
1. C[C@@H]1C[C@@H](NC(=O)c2cc(=O)[nH]c3c(F)c(F)ccc23)CN1c1c(C(=O)N2CCOCC2)cc(C#N)cc1C(F)(F)F
2. O=C(N[C@@H]1CCN(c2c(C(=O)N3CCOCC3)cc(F)cc2C(F)(F)F)C1)c1cc(=O)[nH]c2c(F)cc(F)cc12
3. O=C(N[C@@H]1CCN(c2c(C(=O)N3CCCC3)cc(Br)cc2C(F)(F)F)C1)c1cc(=O)[nH]c2c(F)cccc12

Solution:
[91.7, 173, 317]

Source listed as patent US20240158368A1.
